FYI, the data here is from PubChem BioAssay (Tox21).

- experimentalSystem: 5-hydroxytryptamine receptor 2A (Homo sapiens) (UniProt P28223)
- Sequence (P28223 whole entry, looked up): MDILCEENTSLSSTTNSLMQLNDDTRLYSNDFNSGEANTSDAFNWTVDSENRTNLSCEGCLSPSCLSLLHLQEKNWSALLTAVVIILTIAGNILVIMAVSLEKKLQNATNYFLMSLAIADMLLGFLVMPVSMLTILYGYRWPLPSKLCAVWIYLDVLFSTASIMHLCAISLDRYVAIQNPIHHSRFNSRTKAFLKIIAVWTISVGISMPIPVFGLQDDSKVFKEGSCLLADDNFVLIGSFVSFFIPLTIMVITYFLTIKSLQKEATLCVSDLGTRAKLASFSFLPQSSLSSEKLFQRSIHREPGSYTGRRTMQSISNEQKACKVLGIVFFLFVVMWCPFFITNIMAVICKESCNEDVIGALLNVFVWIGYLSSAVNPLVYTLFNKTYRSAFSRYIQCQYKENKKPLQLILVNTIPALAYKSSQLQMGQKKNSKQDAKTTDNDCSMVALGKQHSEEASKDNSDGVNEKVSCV
- procedureDetails: 5-hydroxytryptamine receptor 2A (HTR2A) small molecule agonists, cell-based qHTS assay (AID 1963587); also: nearly all actives have a fitted effect of over 30% in size
- assaySetup: HTR2A-CHO cells, calcium flux fluorescence, agonist mode; series mostly up to 76.8 µM
Records with an inconclusive call do not appear. The source made the active and inactive calls. Calls follow the shape of the full dose curve.
Choose one outcome from this list and give only that: 1 (active), 0 (inactive)

In [3]: df
Out[3]:
                                molecule                        experimentalsystem  grouplabel
0  CC(C)N1C(=O)N(c2ccccc2)CSC1=NC(C)(C)C  5-hydroxytryptamine receptor 2A (Homo sapiens) (UniProt P28223)           0

Given `CC(C)(O)c1cnn2c(-c3ccc(F)c(-c4c(F)cccc4C#N)c3)cnc2n1` , state the outcome it received in this test.
1

Given `CN1C(=O)[C@@H](NC(=O)c2cc3ccccc3[nH]2)N=C(c2ccccc2)c2ccccc21` , state the outcome it received in this test.
0

Given C#CCC1=C(C)C(OC(=O)C2C(C=C(C)C)C2(C)C)CC1=O (stereo not given) , state the outcome it received in this test.
0

Given `CC(=O)NNc1ccccc1` , state the outcome it received in this test.
0

Given COCC(C)N(C(=O)CCl)c1c(C)csc1C (stereo not given) , state the outcome it received in this test.
0

Given `C#C[C@]1(O)C=C[C@H]2[C@@H]3CCC4=CC(=O)CC[C@@H]4[C@H]3CC[C@@]21CC` , state the outcome it received in this test.
0

Given `O=[N+]([O-])c1ccc(O)c([N+](=O)[O-])c1` , state the outcome it received in this test.
0

Given `N#Cc1ccc(N(CC(N)=O)CC(F)(F)F)cc1C(F)(F)F` , state the outcome it received in this test.
0

Given CCSC(C)CC1CC(=O)C(/C(CC)=N/OC/C=C/Cl)=C(O)C1 (stereo not given) , state the outcome it received in this test.
0

Given `C#C[C@]1(O)CC[C@H]2[C@@H]3CCC4=CC(=O)CCC4=C3C=C[C@@]21CC` , state the outcome it received in this test.
0

Given `CC(C)(C)N(NC(=O)c1ccc(Cl)cc1)C(=O)c1ccccc1` , state the outcome it received in this test.
0

Given CC(CC(C#N)(c1ccccc1)c1ccccc1)N(C)C (stereo not given) , state the outcome it received in this test.
0
